# Tested on: K4 kissing-loop RNA reporter;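 also: bound reporter read as fluorescence of individual clusters on recovered sequencing chips by microscopy, with normalized cluster intensities fitted with a binding model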
# ASSAY EXPLANATION: apparent KD of K4 kissing-loop reporter; higher = weaker reporter binding
# CONDITION SUMMARY: Eterna round: R107; input ligand: tryptophan 2.4 mM
# cutoff 0.2 µM applies to apparent KD of K4 kissing-loop reporter; >= gives yes, < gives no

CUGACGCUGAUACGGUGGCCGCUGGUCGUGCGAGGACCGGUACGGCCGCCACUCGCAUGAGUGAUGUUCAUGUGUCGUCGUCGUC [#07 K4 Tryptophan A Exclusion]
no
CGAUGGAUGGCAGGAUAUAGACAUUGAGUGAUGUUCGAUGAUUAUCCAUAUUCCCGUCACCUAUGACUAGAAGGGCCAUCCAUCG
yes

Now consider the entry below.
Threshold query (apparent KD of K4 kissing-loop reporter >= 0.2 µM) on UGACUGGACUGAAGGAGCGUUGAAGGAGCGUAAGGAGUGAUGUUCCAUACAGGUAGGUCGCAGCAGGUAGGUCGCAGUCUAGUCU [ArgBS 26 #DoubleAptamer #SwitchBubble]
yes
